Cited source: patent US20250270298A1

Biological target: C. jejuni flagella (Campylobacter jejuni)
Experiment: apparent affinity estimated from ELISA dose response on immobilized Cj flagella

BINDER: Flagella-ECF-1C4 (VHH) VHH: EVQLVESGGGLVQAGGSLRVSCAASGRAVHNYALNWFRQAPGKAREFVSAISWTRRTYYANSVRGRFTISRDNNGNMVHLQMSNLKSEDTALYYCAAATTWPRLDGAEYWGQGTQVTVSS
Kd [nM]: 4
--
BINDER: Flagella-ECF-1F4 (VHH) VHH: EVQLVESGGGLVQPGGSLRLSCEAAGSILRVNSMGWYRQAPGKQRDLVSIITSNNDAKYSDSVRGRFTISRDNAKNTVYLQMSSLKPDDTAVYYCNAYVETAGWIPTTHNLWGQGTQVTVSS
Kd [nM]: 0.6
--
BINDER: Flagella-ECF-1B6 (VHH) VHH: EVQLVESGGGLVQSGGSLRLSCAASGRIFSITNMGWYRQAPGEQRELVADMPSGGSTNYADSVKGRFTISRDIAKNTVYLQMNSLKPEDTAVYYCNLKMSQPGWLVTNHNFWGQGTQVTVSS
Kd [nM]: 5
--
BINDER: Flagella-ECF-1G8 (VHH) VHH: EVQLVESGGGLVEAGGSLTLSCTTSEPTSLLNLMGWWRQGPGKEREFVASSNWSGKLVDYADGVEGRFTVIRNEDENAISLQMNSLTVEDTAIYYCAASRLGLPRSAQANQYWGQGTQVTVSS
Kd [nM]: 7
--
BINDER: Flagella-ECF-1D9 (VHH) VHH: EVQLVESGGGLVEPGGSLRLSCATSGFAFDNYCMYWVRQAPGKGLEWISGITNSGSFSYYADSVKGRFTISRDNAKNTLFLEMNSLTVDDTAVYYCAIHGHGCTWDSLRTTSGPRYRGQGTQVTVSS
Kd [nM]: 9
